biological target: MLL2 (Homo sapiens); experiment: Methyltransferase inhibition, 10-dose IC50 mode; type: biochemical; conditions: 1 μM SAM concentration
metric: IC50
Field note: include the unit after the figure.

Q) Please report IC50 for the following compound: "Nc1ncnc2c1ncn2[C@@H]1O[C@H](CSCC[C@H](N)C(=O)O)[C@@H](O)[C@H]1O"
A) 13.1 µM

###

target: DNMT3b (Homo sapiens, UniProt Q9UBC3); assay: Methyltransferase inhibition, 10-dose IC50 mode; format: biochemical; conditions: 1 μM SAM concentration
metric: IC50 (nM)
Number in nM, nothing else.

Q) For "Nc1ncnc2c1ncn2[C@@H]1O[C@H](CSCC[C@H](N)C(=O)O)[C@@H](O)[C@H]1O" , write its IC50.
A) 223

###

Target: GLP (Homo sapiens, UniProt Q9H9B1)
Sequence (Q9H9B1 1-1298): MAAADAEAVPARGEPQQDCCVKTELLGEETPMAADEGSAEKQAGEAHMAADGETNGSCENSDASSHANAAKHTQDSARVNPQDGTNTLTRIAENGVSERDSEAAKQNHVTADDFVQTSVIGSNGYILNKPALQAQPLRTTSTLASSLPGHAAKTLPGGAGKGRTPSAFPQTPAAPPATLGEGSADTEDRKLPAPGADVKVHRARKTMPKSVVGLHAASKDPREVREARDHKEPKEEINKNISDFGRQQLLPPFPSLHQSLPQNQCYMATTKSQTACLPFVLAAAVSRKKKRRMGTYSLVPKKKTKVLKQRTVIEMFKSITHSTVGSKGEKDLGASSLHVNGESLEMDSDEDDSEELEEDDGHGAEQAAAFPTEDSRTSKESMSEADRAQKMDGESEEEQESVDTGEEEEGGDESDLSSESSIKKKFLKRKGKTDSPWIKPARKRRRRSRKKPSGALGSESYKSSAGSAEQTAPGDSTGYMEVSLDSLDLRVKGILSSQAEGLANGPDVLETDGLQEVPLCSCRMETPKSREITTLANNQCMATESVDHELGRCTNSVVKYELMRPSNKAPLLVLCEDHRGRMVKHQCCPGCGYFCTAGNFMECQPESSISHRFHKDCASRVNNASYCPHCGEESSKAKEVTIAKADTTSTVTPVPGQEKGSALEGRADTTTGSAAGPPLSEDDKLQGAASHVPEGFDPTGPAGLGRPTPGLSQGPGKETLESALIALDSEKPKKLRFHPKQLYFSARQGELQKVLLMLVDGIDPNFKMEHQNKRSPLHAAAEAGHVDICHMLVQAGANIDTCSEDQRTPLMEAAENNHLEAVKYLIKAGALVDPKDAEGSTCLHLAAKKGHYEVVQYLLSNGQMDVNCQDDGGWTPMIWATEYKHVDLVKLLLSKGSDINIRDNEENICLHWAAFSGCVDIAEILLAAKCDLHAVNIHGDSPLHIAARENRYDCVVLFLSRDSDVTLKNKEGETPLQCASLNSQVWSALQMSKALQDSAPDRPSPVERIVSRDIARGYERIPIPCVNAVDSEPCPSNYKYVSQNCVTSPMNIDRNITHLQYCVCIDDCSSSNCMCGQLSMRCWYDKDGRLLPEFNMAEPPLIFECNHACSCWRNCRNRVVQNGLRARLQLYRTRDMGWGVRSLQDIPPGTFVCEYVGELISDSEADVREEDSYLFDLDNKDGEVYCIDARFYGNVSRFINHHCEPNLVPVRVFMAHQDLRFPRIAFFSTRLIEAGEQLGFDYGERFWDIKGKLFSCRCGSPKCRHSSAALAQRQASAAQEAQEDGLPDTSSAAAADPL
Assay: Methyltransferase inhibition, 10-dose IC50 mode
Format: biochemical
Details: 1 μM SAM concentration; read-out: IC50 (M), GLP
metric: IC50 (M)
Note: unit M is implicit; provide only the numeric part.

Q) Look up and state reported IC50 for Nc1ncnc2c1ncn2[C@@H]1O[C@H](CSCC[C@H](N)C(=O)O)[C@@H](O)[C@H]1O [SAH, S-(5′-Adenosyl)-L-homocysteine]
A) 3.45e-07

###

molecular target: UniProtKB Q9H9B1; experiment: Methyltransferase inhibition, 10-dose IC50 mode; type: biochemical; settings: 1 μM SAM concentration; read-out: IC50, GLP
metric: pIC50
pIC50 is a log-scale quantity: -log10 of the concentration expressed in molar.

Q) GET pIC50 where system = UniProtKB Q9H9B1 and item = "CN1C(=O)[C@]23SS[C@@]1(C)C(=O)N2[C@H]1Nc2ccccc2[C@@]1([C@@]12c4ccccc4N[C@@H]1N1C(=O)[C@@]4(C)SS[C@]1(C(=O)N4C)[C@H]2O)[C@@H]3O"
A) 5.90

###

molecular target: PRMT3 (Homo sapiens); assay: Methyltransferase inhibition, 10-dose IC50 mode; format: biochemical; conditions: 1 μM SAM concentration
Sequence (O60678 whole entry, species assumed): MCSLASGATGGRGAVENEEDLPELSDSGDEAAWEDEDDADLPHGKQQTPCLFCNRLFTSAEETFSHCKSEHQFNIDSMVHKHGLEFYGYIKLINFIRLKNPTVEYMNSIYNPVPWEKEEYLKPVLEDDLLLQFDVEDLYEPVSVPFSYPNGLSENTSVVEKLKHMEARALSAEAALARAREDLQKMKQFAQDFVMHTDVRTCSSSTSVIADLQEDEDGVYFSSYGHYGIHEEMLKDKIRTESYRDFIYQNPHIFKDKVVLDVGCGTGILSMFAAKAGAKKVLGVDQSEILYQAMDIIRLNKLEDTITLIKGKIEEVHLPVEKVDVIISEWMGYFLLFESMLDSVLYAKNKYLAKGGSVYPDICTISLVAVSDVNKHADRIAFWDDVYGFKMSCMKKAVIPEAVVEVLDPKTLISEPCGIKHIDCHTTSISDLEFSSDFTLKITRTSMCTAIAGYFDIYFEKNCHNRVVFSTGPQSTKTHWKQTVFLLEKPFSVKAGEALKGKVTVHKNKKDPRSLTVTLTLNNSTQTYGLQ
metric: IC50 (nM)
Give the number; nM is assumed, so skip it.

Q) Specify IC50 for Nc1ncnc2c1ncn2[C@@H]1O[C@H](CSCC[C@H](N)C(=O)O)[C@@H](O)[C@H]1O [SAH, S-(5′-Adenosyl)-L-homocysteine] and stop.
A) 1590

###

target: G9a (Homo sapiens); test: Methyltransferase inhibition, 10-dose IC50 mode; assay type: biochemical; settings: 1 μM SAM concentration; read-out: IC50 (M), G9a
Sequence (Q96KQ7 whole entry): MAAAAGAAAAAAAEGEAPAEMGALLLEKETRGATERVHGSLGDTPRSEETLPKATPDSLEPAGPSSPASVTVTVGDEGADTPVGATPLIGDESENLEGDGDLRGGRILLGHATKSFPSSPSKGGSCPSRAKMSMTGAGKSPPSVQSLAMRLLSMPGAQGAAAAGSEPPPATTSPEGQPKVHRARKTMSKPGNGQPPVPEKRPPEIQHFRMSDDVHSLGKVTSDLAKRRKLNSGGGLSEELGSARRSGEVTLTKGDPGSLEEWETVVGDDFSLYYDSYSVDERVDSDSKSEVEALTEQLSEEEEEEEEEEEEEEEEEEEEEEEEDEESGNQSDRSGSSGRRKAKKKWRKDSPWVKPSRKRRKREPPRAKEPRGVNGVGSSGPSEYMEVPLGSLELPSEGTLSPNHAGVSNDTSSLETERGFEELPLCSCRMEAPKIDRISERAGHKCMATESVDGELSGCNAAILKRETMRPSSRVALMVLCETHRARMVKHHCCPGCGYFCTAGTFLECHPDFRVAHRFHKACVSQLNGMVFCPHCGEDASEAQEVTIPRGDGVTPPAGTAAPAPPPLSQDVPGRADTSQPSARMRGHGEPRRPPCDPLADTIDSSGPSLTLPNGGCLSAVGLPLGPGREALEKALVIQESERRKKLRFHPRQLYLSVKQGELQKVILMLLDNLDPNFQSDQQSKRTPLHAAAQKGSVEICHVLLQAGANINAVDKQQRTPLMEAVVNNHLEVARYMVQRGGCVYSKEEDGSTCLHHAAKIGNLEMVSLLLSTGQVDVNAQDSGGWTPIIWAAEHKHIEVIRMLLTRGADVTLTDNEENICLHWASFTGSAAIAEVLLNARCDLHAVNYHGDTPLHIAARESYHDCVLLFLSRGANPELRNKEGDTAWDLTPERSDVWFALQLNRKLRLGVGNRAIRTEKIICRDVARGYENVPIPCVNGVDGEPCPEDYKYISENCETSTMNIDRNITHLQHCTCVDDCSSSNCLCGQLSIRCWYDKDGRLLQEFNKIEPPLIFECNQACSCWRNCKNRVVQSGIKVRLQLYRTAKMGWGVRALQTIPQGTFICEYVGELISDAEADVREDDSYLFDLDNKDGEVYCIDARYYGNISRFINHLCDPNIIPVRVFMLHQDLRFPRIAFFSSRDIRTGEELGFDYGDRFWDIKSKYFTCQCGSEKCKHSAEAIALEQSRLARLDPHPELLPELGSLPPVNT
metric: IC50 (M)
Give the number; M is assumed, so skip it.

Q) Report measured IC50; entry is "CN1C(=O)[C@]23SS[C@@]1(C)C(=O)N2[C@H]1Nc2ccccc2[C@@]1([C@@]12c4ccccc4N[C@@H]1N1C(=O)[C@@]4(C)SS[C@]1(C(=O)N4C)[C@H]2O)[C@@H]3O"
A) 5.38e-07

###

target: SUV39H2 (Homo sapiens); experiment: Methyltransferase inhibition, 10-dose IC50 mode; assay type: biochemical; conditions: 1 μM SAM concentration; read-out: IC50, SUV39H2
Sequence (Q9H5I1 whole entry): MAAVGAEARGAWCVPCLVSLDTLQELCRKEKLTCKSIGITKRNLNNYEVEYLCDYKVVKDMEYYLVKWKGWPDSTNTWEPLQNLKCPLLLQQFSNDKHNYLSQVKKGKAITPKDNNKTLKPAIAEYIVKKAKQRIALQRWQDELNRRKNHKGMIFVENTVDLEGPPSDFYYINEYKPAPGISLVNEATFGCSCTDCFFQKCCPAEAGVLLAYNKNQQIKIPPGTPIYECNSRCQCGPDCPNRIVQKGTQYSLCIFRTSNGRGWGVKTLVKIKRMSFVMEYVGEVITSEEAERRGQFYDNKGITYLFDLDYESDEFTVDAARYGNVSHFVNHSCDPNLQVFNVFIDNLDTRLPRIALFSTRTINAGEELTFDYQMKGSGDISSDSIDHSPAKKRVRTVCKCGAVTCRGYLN
metric: IC50

Q) Identify IC50 associated with the compound "CN1C(=O)[C@]23SS[C@@]1(C)C(=O)N2[C@H]1Nc2ccccc2[C@@]1([C@@]12c4ccccc4N[C@@H]1N1C(=O)[C@@]4(C)SS[C@]1(C(=O)N4C)[C@H]2O)[C@@H]3O"
A) 480 nM

###

biological target: MLL1 (Homo sapiens, UniProt Q03164); assay: Methyltransferase inhibition, 10-dose IC50 mode; format: biochemical; details: 1 μM SAM concentration; read-out: IC50, MLL1
metric: IC50 (µM)
Value expressed in µM; do not type the unit.

Q) Identify measured IC50 corresponding to CN1C(=O)[C@]23SS[C@@]1(C)C(=O)N2[C@H]1Nc2ccccc2[C@@]1([C@@]12c4ccccc4N[C@@H]1N1C(=O)[C@@]4(C)SS[C@]1(C(=O)N4C)[C@H]2O)[C@@H]3O [Verticillin A]
A) 3.08

###

biological target: UniProt Q9H5I1; assay: Methyltransferase inhibition, 10-dose IC50 mode; format: biochemical; details: 1 μM SAM concentration; read-out: IC50 (M), SUV39H2
Listing of recorded IC50 by entry.
Don't forget the unit after the value.

[[record]]
mol = "CN1C(=O)[C@]23SS[C@@]1(C)C(=O)N2[C@H]1Nc2ccccc2[C@@]1([C@@]12c4ccccc4N[C@@H]1N1C(=O)[C@@]4(C)SS[C@]1(C(=O)N4C)[C@H]2O)[C@@H]3O"
targetentity = "UniProt Q9H5I1"
endpointvalue = "4.81e-07 M"


Here's the next entry for you.
Q) Fill in IC50 for record "Nc1ncnc2c1ncn2[C@@H]1O[C@H](CSCC[C@H](N)C(=O)O)[C@@H](O)[C@H]1O"
A) 5.73e-05 M

###

biological target: SETMAR (Homo sapiens); assay: Methyltransferase inhibition, 10-dose IC50 mode; assay type: biochemical; conditions: 1 μM SAM concentration
Sequence (Q53H47 whole entry): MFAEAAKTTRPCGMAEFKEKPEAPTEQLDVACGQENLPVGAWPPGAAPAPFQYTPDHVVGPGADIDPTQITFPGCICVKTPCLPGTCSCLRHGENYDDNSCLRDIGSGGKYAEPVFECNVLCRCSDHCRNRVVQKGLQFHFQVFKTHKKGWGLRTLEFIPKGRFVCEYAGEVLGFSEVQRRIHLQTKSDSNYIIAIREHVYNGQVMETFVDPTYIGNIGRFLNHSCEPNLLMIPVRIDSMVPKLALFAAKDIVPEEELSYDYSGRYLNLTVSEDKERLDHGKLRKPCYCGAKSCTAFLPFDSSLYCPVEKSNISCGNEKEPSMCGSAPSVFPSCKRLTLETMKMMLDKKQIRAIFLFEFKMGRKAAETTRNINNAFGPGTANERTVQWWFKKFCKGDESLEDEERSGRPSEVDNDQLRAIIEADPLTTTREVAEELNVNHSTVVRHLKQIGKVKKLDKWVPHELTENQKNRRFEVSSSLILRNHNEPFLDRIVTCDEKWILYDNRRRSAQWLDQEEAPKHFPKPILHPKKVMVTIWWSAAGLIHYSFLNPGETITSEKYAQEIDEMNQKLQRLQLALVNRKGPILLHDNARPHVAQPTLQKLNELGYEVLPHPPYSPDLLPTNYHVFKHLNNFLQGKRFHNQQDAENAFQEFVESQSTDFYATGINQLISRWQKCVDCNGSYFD
metric: IC50 (µM)
State the answer as a number, implicitly in µM.

Q) // Input: "Nc1ncnc2c1ncn2[C@@H]1O[C@H](CSCC[C@H](N)C(=O)O)[C@@H](O)[C@H]1O" . Output its IC50 only.
A) 3.07

###

molecular target: SUV39H1 (Homo sapiens); assay: Methyltransferase inhibition, 10-dose IC50 mode; type: biochemical; settings: 1 μM SAM concentration; read-out: IC50 (M), SUV39H1
Sequence (O43463 whole entry): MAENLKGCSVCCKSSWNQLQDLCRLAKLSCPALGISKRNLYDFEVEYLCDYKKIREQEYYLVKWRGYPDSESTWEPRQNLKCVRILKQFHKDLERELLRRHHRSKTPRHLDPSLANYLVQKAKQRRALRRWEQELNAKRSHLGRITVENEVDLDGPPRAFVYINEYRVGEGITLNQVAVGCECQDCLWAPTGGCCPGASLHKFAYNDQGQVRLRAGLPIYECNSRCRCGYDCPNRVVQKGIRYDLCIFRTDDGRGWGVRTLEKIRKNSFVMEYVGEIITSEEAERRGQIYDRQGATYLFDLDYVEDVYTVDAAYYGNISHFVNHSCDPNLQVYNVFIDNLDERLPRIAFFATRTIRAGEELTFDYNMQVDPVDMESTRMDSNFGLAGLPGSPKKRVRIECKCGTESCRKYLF
metric: IC50 (M)
Reply numerically in M, unit not repeated.

Q) State, in one line, measured IC50 of CN1C(=O)[C@]23SS[C@@]1(C)C(=O)N2[C@H]1Nc2ccccc2[C@@]1([C@@]12c4ccccc4N[C@@H]1N1C(=O)[C@@]4(C)SS[C@]1(C(=O)N4C)[C@H]2O)[C@@H]3O [Verticillin A]
A) 5.73e-07

###

target: DNMT3a (Homo sapiens)
Sequence (Q9Y6K1 whole entry, looked up): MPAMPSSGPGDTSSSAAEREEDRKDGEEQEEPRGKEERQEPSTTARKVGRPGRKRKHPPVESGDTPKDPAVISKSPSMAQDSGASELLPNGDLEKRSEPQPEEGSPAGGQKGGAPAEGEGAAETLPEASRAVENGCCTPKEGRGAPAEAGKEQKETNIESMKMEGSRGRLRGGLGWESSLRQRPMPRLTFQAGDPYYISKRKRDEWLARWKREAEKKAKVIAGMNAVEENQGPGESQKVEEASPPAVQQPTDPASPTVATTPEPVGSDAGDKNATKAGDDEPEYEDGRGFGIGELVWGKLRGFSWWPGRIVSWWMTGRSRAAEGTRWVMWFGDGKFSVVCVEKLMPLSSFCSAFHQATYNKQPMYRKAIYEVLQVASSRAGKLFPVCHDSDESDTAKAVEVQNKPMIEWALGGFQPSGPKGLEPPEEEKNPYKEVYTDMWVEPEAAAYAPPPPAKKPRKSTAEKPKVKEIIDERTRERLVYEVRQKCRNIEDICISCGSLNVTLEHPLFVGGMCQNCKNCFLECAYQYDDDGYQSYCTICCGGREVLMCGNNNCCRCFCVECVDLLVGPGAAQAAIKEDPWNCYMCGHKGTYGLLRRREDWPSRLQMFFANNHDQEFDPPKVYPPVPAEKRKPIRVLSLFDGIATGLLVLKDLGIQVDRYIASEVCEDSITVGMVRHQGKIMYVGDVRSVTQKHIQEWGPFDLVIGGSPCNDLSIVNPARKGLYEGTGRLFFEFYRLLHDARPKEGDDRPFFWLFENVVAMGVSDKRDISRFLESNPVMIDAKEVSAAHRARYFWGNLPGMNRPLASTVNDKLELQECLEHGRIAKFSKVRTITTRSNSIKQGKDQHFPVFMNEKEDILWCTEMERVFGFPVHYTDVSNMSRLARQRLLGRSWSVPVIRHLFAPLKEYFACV
metric: IC50 (nM)
Output spec: scalar in nM, unitless text.

Q) Please give measured IC50 of the following entry: Nc1ncnc2c1ncn2[C@@H]1O[C@H](CSCC[C@H](N)C(=O)O)[C@@H](O)[C@H]1O [SAH, S-(5′-Adenosyl)-L-homocysteine]
A) 199

###

target: PRMT6 (Homo sapiens)
Sequence (Q96LA8 whole entry, species assumed): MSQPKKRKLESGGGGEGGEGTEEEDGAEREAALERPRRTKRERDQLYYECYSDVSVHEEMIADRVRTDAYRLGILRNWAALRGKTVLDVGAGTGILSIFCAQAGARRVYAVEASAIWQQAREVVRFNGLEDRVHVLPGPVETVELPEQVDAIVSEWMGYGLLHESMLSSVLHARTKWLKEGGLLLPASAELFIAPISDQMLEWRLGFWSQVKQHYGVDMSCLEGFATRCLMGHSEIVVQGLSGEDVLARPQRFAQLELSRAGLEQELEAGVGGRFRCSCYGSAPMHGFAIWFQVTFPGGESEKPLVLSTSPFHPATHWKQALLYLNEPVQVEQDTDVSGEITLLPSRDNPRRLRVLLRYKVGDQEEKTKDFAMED
metric: pIC50
For clarity, pIC50 is expressed as the negative log10 of concentration in mol/L.

Q) Give pIC50 for this entry on PRMT6 (Homo sapiens): "Nc1ncnc2c1ncn2[C@@H]1O[C@H](CSCC[C@H](N)C(=O)O)[C@@H](O)[C@H]1O"
A) 6.53
